Listing of entries alongside the reported Emax.
# Study system: TRAP1 enzyme (Homo sapiens, UniProt Q12931)
# Procedure details: Malachite green phosphate assay of TRAP1 ATPase activity
# Format: biochemical
# Assay context: read-out: Malachite Green Fluor DRC: Mean Emax

Worked examples follow.
CCc1ccc(NC(=O)c2cnc(C(F)(F)F)[nH]2)cc1S(=O)(=O)Nc1ccc(Br)cc1 [Compound 216]	200 to 300%
COc1ccc(NC(=O)c2cnc(C(F)(F)F)[nH]2)cc1S(=O)(=O)Nc1ccccc1 [Compound 223]	160 to 199%
CCOC(=O)CCCCCN(c1ccc(Br)cc1)S(=O)(=O)c1cc(NC(=O)c2ncco2)ccc1OC [Compound 247]	123 to 159%
COc1ccc(NC(=O)c2ncco2)cc1S(=O)(=O)N(CCCCCC(=O)O)c1ccc(Br)cc1 [Compound 250]	200 to 300%
COc1ccc(NC(=O)c2cnc(C(F)(F)F)[nH]2)cc1S(=O)(=O)Nc1ccc(C(C)(C)C)cc1 [Compound 360]	200 to 300%

What value of Emax has been reported for the following compound? O=C(Nc1ccc(F)c(S(=O)(=O)Nc2ccc(F)cc2)c1)c1ncco1 [Compound 314]
123 to 159%

What value of Emax has been reported for the following compound? COc1ccc(NC(=O)c2cnc(C(F)(F)F)[nH]2)cc1S(=O)(=O)N(CCCCCN1CCCC1)c1ccc(Br)cc1 [Compound 439]
160 to 199%

What value of Emax has been reported for the following compound? Cc1ncoc1C(=O)Nc1cccc(S(=O)(=O)N2CCOc3cc(Cl)ccc32)c1 [Compound 479]
160 to 199%

* * *

Listing of entries alongside the reported EC50.
# Study system: TRAP1 enzyme (Homo sapiens)
# Sequence (Q12931 60-704): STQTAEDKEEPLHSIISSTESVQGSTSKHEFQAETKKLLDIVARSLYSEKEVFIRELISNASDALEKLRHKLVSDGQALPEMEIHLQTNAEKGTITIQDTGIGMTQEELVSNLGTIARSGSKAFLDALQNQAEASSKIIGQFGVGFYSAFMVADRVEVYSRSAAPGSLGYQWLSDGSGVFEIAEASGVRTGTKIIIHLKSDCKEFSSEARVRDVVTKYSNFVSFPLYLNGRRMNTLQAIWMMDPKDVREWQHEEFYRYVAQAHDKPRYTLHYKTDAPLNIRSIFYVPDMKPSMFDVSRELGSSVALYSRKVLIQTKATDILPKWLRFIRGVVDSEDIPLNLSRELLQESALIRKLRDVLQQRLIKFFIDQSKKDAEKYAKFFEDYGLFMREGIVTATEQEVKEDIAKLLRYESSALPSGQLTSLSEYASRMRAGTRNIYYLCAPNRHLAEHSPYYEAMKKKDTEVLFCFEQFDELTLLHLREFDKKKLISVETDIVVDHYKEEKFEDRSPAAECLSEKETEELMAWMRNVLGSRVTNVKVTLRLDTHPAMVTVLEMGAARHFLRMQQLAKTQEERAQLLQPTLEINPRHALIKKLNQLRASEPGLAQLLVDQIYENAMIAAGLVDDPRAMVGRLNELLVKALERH
# Procedure details: ADP Glo assay of TRAP1 ATPase activity
# Assay type: biochemical
# Assay context: TRAP1 ATPase activation, 150 nM Trap1, 20 μM ATP, geometric mean; read-out: ADP GLO DRC: GeoMean EC50
# Description: Potency of test compounds to modulate the ATPase activity of TRAP1 enzyme was evaluated using ADP Glo assay. The assay is based on quantification of the ADP generated from ATP in the ATPase reaction. […] Second, the Kinase Detection Reagent is added to simultaneously convert ADP to ATP and allow the newly synthesized ATP to be measured using a luciferase/luciferin reaction. […]

Worked examples follow.
COc1ccc(NC(=O)c2ccnc(SC)n2)cc1S(=O)(=O)Nc1c(C)cccc1C	20 to 100 µM
Cc1cc(C(=O)Nc2ccc(F)c(S(=O)(=O)Nc3ccc(Cl)cc3)c2)n(Cc2ccc(F)cc2)n1	10 to 20 µM
COc1ccc(NC(=O)c2cccnc2SCc2ccccc2)cc1S(=O)(=O)Nc1c(C)cccc1C	< 10 µM

What value of EC50 has been reported for the following compound? "COc1ccc(NC(=O)c2ncoc2C(C)C)cc1S(=O)(=O)Nc1ccc(Cl)cc1"
10 to 20 µM

What value of EC50 has been reported for the following compound? "COc1ccc(NC(=O)c2cnc(-c3ccccc3C)[nH]2)cc1S(=O)(=O)Nc1ccc(Cl)cc1"
< 10 µM

What value of EC50 has been reported for the following compound? "COc1ccc(NC(=O)c2cc(Br)cnc2C)cc1S(=O)(=O)Nc1c(C)cccc1C"
20 to 100 µM

What value of EC50 has been reported for the following compound? "Cc1cc(C)n(Cc2cccc(C(=O)Nc3ccc(F)c(S(=O)(=O)Nc4ccc(Cl)cc4)c3)c2)n1"
< 10 µM

All figures here come from patent US20230174523A1.
